IC50 listing for selected compounds.
Biological target: Phosphodiesterase 3 (Homo sapiens, UniProt Q14432+Q13370)
Assay: Inhibition of human platelet PDE by inhibiting cyclic Adenosine monophosphate (cAMP) hydrolysis
Mention the unit after the number when you answer.

Recorded results for 2 compounds are shown here.
given_smiles=O=C(CCCOc1ccc2[nH]c3nc(O)nc-3cc2c1)NC12C[C@H]3C[C@@H](C1)C[C@@H](C2)C3 assayed_target="Phosphodiesterase 3 (Homo sapiens, UniProt Q14432+Q13370)" observed_result="1 nM"
given_smiles=CN(C(=O)CCCCOc1ccc2nc3nc(O)n(C)c3cc2c1)C1CCCCCC1 assayed_target="Phosphodiesterase 3 (Homo sapiens, UniProt Q14432+Q13370)" observed_result="600 nM"

Now look at this one.
Record request: IC50 value, item Cn1c(O)nc2cc3cc(OCCCC(=O)O)ccc3nc21
1000 nM

###

Organism: Oryctolagus cuniculus
Assay: Inhibition of platelet aggregation using collagen as activating agent in rabbit platelet rich plasma (PRP)
Type: functional
pEC50 listing for selected compounds.
FYI, pEC50 means -log10 of a concentration in mol per litre.

Recorded results for 4 compounds are shown here.
compound=O=C(CCCCc1ccc2[nH]c3nc(O)nc-3cc2c1)NC12C[C@H]3C[C@@H](C1)C[C@@H](C2)C3 observed_result=6.52
compound=CCOC(=O)CN(C(=O)CCCOc1ccc2[nH]c3nc(O)nc-3cc2c1)C1CCCCC1 observed_result=8.05
compound=O=C(CCCCc1ccc2[nH]c3nc(O)nc-3cc2c1)NC1CCCCC1 observed_result=6.72
compound="CC(O)CCCOc1ccc2[nH]c3nc(O)nc-3cc2c1 (stereo unspecified)" observed_result=7.15

Now look at this one.
Record request: pEC50 value, item COC(=O)CN(C(=O)CCCOc1ccc2[nH]c3nc(O)nc-3cc2c1)C1CCCCC1
8.70

###

Species on record: Oryctolagus cuniculus
Experiment: Inhibition of platelet aggregation using collagen as activating agent in rabbit platelet rich plasma (PRP)
Assay type: functional
pEC50: −log10 of the molar value.
Outcome label depends on pEC50 relative to 7: at/above gives TRUE, below gives FALSE.

Check out these entries, answers already filled in.
given_smiles=COC(=O)/C=C/C=C/c1ccc2[nH]c3nc(O)nc-3cc2c1 answer_label=FALSE
given_smiles=O=C(O)CCCCCOc1ccc2[nH]c3nc(O)nc-3cc2c1 answer_label=FALSE
given_smiles=CN(C(=O)CCCCOc1ccc2nc3[nH]c(=O)[nH]c3cc2c1)C1CCCCCC1 answer_label=TRUE

# evaluate next
Does O=C(CCCOc1ccc2[nH]c3nc(O)nc-3cc2c1)NC12C[C@H]3C[C@@H](C1)C[C@@H](C2)C3 have a reported pEC50 of at least 7?
TRUE

###

Each entry below carries its measured IC50, system: cGMP-dependent 3',5'-cyclic phosphodiesterase (Homo sapiens, UniProt O00408).
Sequence (O00408 whole entry): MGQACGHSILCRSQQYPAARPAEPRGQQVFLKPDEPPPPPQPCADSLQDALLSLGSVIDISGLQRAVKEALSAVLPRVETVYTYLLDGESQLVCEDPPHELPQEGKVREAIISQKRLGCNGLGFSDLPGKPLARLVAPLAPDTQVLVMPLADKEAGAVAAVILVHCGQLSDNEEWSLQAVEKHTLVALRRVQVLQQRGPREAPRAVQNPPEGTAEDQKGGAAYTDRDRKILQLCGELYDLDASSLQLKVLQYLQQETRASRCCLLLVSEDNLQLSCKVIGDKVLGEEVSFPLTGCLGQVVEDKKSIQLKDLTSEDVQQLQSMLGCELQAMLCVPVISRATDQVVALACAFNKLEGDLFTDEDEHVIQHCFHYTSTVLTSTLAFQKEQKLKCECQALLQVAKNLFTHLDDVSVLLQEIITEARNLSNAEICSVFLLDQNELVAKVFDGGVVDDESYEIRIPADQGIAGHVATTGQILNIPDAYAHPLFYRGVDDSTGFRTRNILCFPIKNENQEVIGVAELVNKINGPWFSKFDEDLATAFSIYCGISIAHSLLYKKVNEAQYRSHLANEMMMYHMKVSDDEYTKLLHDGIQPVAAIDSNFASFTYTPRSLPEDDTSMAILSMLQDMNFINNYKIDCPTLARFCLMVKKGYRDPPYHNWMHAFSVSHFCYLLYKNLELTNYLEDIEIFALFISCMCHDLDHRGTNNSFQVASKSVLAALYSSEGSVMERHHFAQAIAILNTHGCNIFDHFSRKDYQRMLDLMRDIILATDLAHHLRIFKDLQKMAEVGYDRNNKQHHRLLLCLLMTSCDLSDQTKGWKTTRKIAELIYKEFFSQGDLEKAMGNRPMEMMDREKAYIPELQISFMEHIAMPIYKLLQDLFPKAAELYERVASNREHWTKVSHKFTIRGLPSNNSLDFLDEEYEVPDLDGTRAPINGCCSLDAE
Express it in µM; write the number only.

Which measured IC50 belongs to CCOC(=O)C1CCN(C(=O)CCCOc2ccc3[nH]c4nc(O)nc-4cc3c2)CC1 , tested on cGMP-dependent 3',5'-cyclic phosphodiesterase (Homo sapiens, UniProt O00408)?
100

Which measured IC50 belongs to O=C(O)CCCCOc1ccc2nc3[nH]c(=O)[nH]c3cc2c1 , tested on cGMP-dependent 3',5'-cyclic phosphodiesterase (Homo sapiens, UniProt O00408)?
30

Which measured IC50 belongs to Cn1c(O)nc2nc3ccc(OCCCCC(=O)O)cc3cc21 , tested on cGMP-dependent 3',5'-cyclic phosphodiesterase (Homo sapiens, UniProt O00408)?
10

Which measured IC50 belongs to O=C(O)CCCOc1ccc2[nH]c3nc(O)nc-3cc2c1 , tested on cGMP-dependent 3',5'-cyclic phosphodiesterase (Homo sapiens, UniProt O00408)?
30

Which measured IC50 belongs to CCOC(=O)CN(C(=O)CCCOc1ccc2[nH]c3nc(O)nc-3cc2c1)C1CCCCC1 , tested on cGMP-dependent 3',5'-cyclic phosphodiesterase (Homo sapiens, UniProt O00408)?
3

Which measured IC50 belongs to O=C(O)COc1ccc2[nH]c3nc(O)nc-3cc2c1 , tested on cGMP-dependent 3',5'-cyclic phosphodiesterase (Homo sapiens, UniProt O00408)?
50

Which measured IC50 belongs to CN(C(=O)CCCCOc1ccc2nc3nc(O)n(C)c3cc2c1)C1CCCCC1 , tested on cGMP-dependent 3',5'-cyclic phosphodiesterase (Homo sapiens, UniProt O00408)?
60
